Assay: self-splicing fitness, log relative to wild type (ln ratio); higher = more splicing; Tetrahymena group I intron in knt gene, E. coli kanamycin selection, DiMSum; sequences stand for … in CUCUCU…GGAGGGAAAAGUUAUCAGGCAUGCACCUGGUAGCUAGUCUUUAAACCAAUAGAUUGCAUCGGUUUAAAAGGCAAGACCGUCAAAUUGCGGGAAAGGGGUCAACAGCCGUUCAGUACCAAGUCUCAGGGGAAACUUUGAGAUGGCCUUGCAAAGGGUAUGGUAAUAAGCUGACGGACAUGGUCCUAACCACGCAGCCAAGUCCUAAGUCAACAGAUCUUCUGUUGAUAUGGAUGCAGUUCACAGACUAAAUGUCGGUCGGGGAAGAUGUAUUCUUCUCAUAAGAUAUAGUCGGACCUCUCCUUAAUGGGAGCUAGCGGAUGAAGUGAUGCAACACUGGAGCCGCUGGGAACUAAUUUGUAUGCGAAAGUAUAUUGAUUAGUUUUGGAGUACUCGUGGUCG;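 note: selection with 25 µg/mL kanamycin versus none on LB agar overnight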
Conditions: 30 °C
Binary classification by self-splicing fitness (ln), with -2 as an inclusive lower bound for Satisfied; all other cases are Not satisfied.

Examples from the recorded data:
Sequence Content: GCACAGCAAUAUUACGCCCA
Class Label: Satisfied

Sequence Content: CCGUAGCAAUAUUACGUUAA
Class Label: Not satisfied

Sequence Content: GCGGAGCAAUAUUACGCGGA
Class Label: Not satisfied

Sequence Content: GCUGAGCAAUAUUACGUCUU
Class Label: Satisfied

Sequence Content: CAUAAGCAAUAUUACGAGCA
Class Label: Not satisfied

Below: the item to evaluate.
Hi team, for UUCGAGCAAUAUUACGACUG , is the recorded self-splicing fitness (ln) at or above -2?
Not satisfied

###

Items are presented alongside their recorded self-splicing fitness (ln).
Test: self-splicing fitness, log relative to wild type (ln ratio); higher = more splicing; Tetrahymena group I intron in knt gene, E. coli kanamycin selection, DiMSum; sequences stand for … in CUCUCU…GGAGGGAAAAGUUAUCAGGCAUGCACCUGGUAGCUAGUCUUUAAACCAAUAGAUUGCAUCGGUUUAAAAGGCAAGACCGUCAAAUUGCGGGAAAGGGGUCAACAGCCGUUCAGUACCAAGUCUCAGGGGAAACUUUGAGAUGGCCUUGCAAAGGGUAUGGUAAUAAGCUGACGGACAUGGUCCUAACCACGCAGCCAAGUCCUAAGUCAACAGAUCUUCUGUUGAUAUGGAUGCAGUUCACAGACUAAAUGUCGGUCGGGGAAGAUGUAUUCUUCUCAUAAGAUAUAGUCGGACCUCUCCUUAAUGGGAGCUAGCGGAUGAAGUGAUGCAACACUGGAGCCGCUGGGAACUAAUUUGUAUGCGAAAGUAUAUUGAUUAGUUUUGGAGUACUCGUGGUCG
Conditions: 30 °C
Write the number on its own, no unit after it.

Sequence Content: AAAAAGCAAUAUUACGGCUC
self-splicing fitness (ln): -0.28

Indicate its recorded self-splicing fitness (ln); the sequence in question is UUCGAGCAAUAUUACGACGG
-1.24

Indicate its recorded self-splicing fitness (ln); the sequence in question is AUCGAGCAAUAUUACGCGCA
-1.59

###

Assay: self-splicing fitness, log relative to wild type (ln ratio); higher = more splicing; Tetrahymena group I intron in knt gene, E. coli kanamycin selection, DiMSum; sequences stand for … in CUCUCU…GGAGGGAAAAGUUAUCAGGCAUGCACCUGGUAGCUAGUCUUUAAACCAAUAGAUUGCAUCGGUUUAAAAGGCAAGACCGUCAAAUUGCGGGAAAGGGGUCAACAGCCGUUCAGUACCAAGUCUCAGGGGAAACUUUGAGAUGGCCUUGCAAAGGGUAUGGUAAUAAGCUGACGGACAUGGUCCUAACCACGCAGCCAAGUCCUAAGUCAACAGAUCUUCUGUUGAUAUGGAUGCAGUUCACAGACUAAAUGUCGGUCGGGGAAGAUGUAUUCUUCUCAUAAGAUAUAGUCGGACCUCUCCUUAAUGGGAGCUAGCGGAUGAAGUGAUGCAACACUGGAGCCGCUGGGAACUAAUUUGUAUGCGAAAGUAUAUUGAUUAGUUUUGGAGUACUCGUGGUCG
Details: 37 °C
Binary classification by self-splicing fitness (ln), with -2 as an inclusive lower bound for 1; all other cases are -1.

Examples from the recorded data:
Sequence Content: CAGUAGCAAUAUUACGUAAG
Class Label: 1
--
Sequence Content: GUUAAGCAAUAUUACGGCCG
Class Label: 1
--
Sequence Content: UAGAAGCAAUAUUACGUGUC
Class Label: -1
--
Sequence Content: CCGUAGCAAUAUUACGCCAG
Class Label: 1
--
Sequence Content: CCGAAGCAAUAUUACGAGUG
Class Label: 1

Hi team, for CCUGAGCAAUAUUACGACGG , is the recorded self-splicing fitness (ln) at or above -2?
-1

Hi team, for AAGUAGCAAUAUUACGUGGG , is the recorded self-splicing fitness (ln) at or above -2?
-1

Hi team, for GAGCAGCAAUAUUACGUUUC , is the recorded self-splicing fitness (ln) at or above -2?
-1

Hi team, for GCAGAGCAAUAUUACGGGAU , is the recorded self-splicing fitness (ln) at or above -2?
-1

Hi team, for CAUUAGCAAUAUUACGACUU , is the recorded self-splicing fitness (ln) at or above -2?
1

###

Items are presented alongside their recorded self-splicing fitness (ln).
Experiment: self-splicing fitness, log relative to wild type (ln ratio); higher = more splicing; Tetrahymena group I intron in knt gene, E. coli kanamycin selection, DiMSum; sequences stand for … in CUCUCU…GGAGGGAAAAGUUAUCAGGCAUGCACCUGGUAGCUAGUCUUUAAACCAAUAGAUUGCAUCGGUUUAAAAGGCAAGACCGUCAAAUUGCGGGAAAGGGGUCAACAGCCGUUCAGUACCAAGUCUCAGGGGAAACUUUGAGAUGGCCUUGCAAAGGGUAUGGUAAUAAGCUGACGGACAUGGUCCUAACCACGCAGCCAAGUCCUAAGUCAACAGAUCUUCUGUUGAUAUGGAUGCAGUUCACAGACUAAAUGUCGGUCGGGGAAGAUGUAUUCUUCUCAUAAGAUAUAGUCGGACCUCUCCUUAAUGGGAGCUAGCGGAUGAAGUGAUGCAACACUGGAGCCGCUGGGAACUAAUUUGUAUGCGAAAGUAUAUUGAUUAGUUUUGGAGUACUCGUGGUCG
Settings: 30 °C
Write the number on its own, no unit after it.

Example results:
Sequence Content: AGCUAGCAAUAUUACGAUCA
Obs Value: -2.01
//
Sequence Content: UGAAAGCAAUAUUACGGUGC
Obs Value: -2.02

Now examine the next entry.
Indicate its recorded self-splicing fitness (ln); the sequence in question is CUCUAGCAAUAUUACGAAGG
-2.01

###

Test: self-splicing fitness, log relative to wild type (ln ratio); higher = more splicing; Tetrahymena group I intron in knt gene, E. coli kanamycin selection, DiMSum; sequences stand for … in CUCUCU…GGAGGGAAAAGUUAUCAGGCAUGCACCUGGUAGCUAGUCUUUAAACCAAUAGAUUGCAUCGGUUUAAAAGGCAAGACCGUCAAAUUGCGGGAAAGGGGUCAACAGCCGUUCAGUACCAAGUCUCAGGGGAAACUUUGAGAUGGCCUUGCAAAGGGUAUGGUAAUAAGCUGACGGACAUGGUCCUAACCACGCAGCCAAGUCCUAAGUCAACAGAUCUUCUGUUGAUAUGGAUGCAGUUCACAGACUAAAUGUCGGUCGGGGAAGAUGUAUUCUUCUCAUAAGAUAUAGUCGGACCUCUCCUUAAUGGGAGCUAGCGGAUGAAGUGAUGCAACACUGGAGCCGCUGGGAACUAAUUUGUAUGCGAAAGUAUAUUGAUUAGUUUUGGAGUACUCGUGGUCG
Conditions: 30 °C
Measurement Label: self-splicing fitness (ln)
Write the number on its own, no unit after it.

Indicate its recorded self-splicing fitness (ln); the sequence in question is CCGUAGCAAUAUUACGCCUA
-3.02

Indicate its recorded self-splicing fitness (ln); the sequence in question is AAUAAGCAAUAUUACGGGGG
-2.91

Indicate its recorded self-splicing fitness (ln); the sequence in question is ACGAAGCAAUAUUACGGGAA
-3.09

Indicate its recorded self-splicing fitness (ln); the sequence in question is UUACAGCAAUAUUACGGACG
-0.683

Indicate its recorded self-splicing fitness (ln); the sequence in question is AGAUAGCAAUAUUACGAGAC
-3.94

Indicate its recorded self-splicing fitness (ln); the sequence in question is GCUUAGCAAUAUUACGAAUC
-0.244

Indicate its recorded self-splicing fitness (ln); the sequence in question is UUGCAGCAAUAUUACGAACU
-2.25

###

Assay: self-splicing fitness, log relative to wild type (ln ratio); higher = more splicing; Tetrahymena group I intron in knt gene, E. coli kanamycin selection, DiMSum; sequences stand for … in CUCUCU…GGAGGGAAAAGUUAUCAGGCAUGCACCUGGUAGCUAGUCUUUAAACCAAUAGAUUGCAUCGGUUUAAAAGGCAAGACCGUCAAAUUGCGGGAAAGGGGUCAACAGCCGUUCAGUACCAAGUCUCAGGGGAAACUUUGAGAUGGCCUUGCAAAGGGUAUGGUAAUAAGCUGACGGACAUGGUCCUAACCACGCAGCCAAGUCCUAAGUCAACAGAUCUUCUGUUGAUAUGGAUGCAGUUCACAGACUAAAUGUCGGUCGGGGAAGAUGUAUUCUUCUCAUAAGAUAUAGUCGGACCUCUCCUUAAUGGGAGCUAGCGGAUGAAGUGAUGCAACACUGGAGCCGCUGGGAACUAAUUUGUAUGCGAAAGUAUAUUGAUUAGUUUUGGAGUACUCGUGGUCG
Conditions: 30 °C
Binary classification by self-splicing fitness (ln), with -3 as an inclusive lower bound for True; all other cases are False.

Examples from the recorded data:
Sequence Content: UAUCAGCAAUAUUACGGGGC
Class Label: True
--
Sequence Content: UCAGAGCAAUAUUACGCUUG
Class Label: True
--
Sequence Content: UAGAAGCAAUAUUACGUGCA
Class Label: True

Hi team, for ACCCAGCAAUAUUACGAAAA , is the recorded self-splicing fitness (ln) at or above -3?
True

Hi team, for CGGUAGCAAUAUUACGGACC , is the recorded self-splicing fitness (ln) at or above -3?
False

Hi team, for CACUAGCAAUAUUACGCUAG , is the recorded self-splicing fitness (ln) at or above -3?
False

Hi team, for CAGUAGCAAUAUUACGCUGU , is the recorded self-splicing fitness (ln) at or above -3?
True

Hi team, for UAUGAGCAAUAUUACGCAUG , is the recorded self-splicing fitness (ln) at or above -3?
True

Hi team, for GGACAGCAAUAUUACGAGCC , is the recorded self-splicing fitness (ln) at or above -3?
True

Hi team, for AGACAGCAAUAUUACGUCGG , is the recorded self-splicing fitness (ln) at or above -3?
True

Origin of measurements: the supplement of paper PMC7877785
